System: BT-549 breast
Assay: NCI tumour cell line growth inhibition, 48 h
MEASURED_PARAMETER: TGI (µM)

1) COc1ccc2c3c1OC1C34CCN(C)C(C2)C4=CC(I)C1(OC)OC (stereo unspecified)	36.2
2) CCOC(=O)c1cnn2c3ccccc3n(S(=O)(=O)c3ccc(OC)cc3)c12	13.1
3) ClCc1cccc(CSc2ncnc3c2ncn3Cc2cccc(CCl)c2)c1	2.83
4) c1ccc2c(c1)ccn1ccc3c4ccccc4nc-3c21	3.82

----------
Overview of reported GI50 across a group of molecules:
System: NCI-H522 lung
Test: NCI tumour cell line growth inhibition, 48 h
MEASURED_PARAMETER: GI50

1. Cc1ccc(NCCN(C)C)c2c(=O)c3ccccc3sc12	1.89 µM
2. N#Cc1c(N)nc(NCc2ccccc2)c(C#N)c1-c1ccc(Cl)cc1Cl	> 68.7 µM
3. Cc1cc(Nc2cc(N3CCN(C)CC3)nc(Sc3ccc(NC(=O)C4CC4)cc3)n2)n[nH]1	4.16 µM
4. NC(=Nc1ccc(N)cc1)C(N)=Nc1ccc(N)cc1	> 100 µM
5. O=C(Nc1ccccc1O)c1ccc(NS(=O)(=O)c2cccc3cccnc23)cc1	0.67 µM
6. CN1CCN(Cc2ccc3c(NNC(=O)c4ccccc4)nc4cc(F)ccc4n23)CC1	0.55 µM
7. CCOC(=O)/C=C/C(=O)[C@H](CC(C)C)NC(=O)[C@H](Cc1ccccc1)NC(=O)OCc1ccccc1	2.1 µM
8. COc1ccccc1NS(=O)(=O)c1ccc2oc(SC(C)C)nc2c1	10.2 µM
9. Nc1ccccc1C#C/C=C\C#Cc1c(F)c(F)c(F)c(F)c1F	11.9 µM
10. CC1=C(C)C2(O)C(=C(C)C1=O)/C(=C(/O)c1ccccc1)c1nc3ccccc3n12 (stereo not given)	19.6 µM
